Each record here notes measured 30 Days @ 40° C. (% Change from Initial).
experiment: Chemical stability, accelerated 40° C. storage; type: physicochemical; details: active ingredient in Ready to Use Formulation 3; 30 days at 40° C.
Your answer should be a plain number; it is taken to be in %.

Value of 30 Days @ 40° C. (% Change from Initial) reported for the molecule COc1c(Cl)ccc(Cl)c1C(=O)O is −1.79

Value of measured 30 Days @ 40° C. (% Change from Initial) for the entry Cc1nn(-c2cc(NS(C)(=O)=O)c(Cl)cc2Cl)c(=O)n1C(F)F : −0.33

Short answer for Cc1c(C(=O)c2c[nH]n(C)c2=O)ccc(S(C)(=O)=O)c1C1=NOCC1 : 30 Days @ 40° C. (% Change from Initial) was −0.46
